# Test system: Mus musculus
# experimental-details: Acute toxicity in human HepG2 cells xenografted ip dosed Swiss albino mouse assessed as mortality measured up to 2 weeks
# Assay type: organism-based
# condition-set: in vivo, 336 h
The label Satisfied is reserved for LD50 strictly under 0.1 mg/kg; Not satisfied covers values equal to or above it.

compound	label-value
CSc1nc2c(c(=O)[nH]1)C(c1ccc([N+](=O)[O-])cc1)C1=C(CC(C)(C)CC1=O)N2[C@@H]1OC[C@@H](O)[C@@H](O)[C@@H]1O (stereo partly specified)	Not satisfied
CSc1nc2c(c(=O)[nH]1)C(c1ccc([N+](=O)[O-])cc1)C1=C(CC(C)(C)CC1=O)N2[C@@H]1O[C@H](CO)[C@@H](O)[C@H](O)[C@H]1O (stereo partly specified)	Not satisfied
CSc1nc2c(c(=O)[nH]1)C(c1ccc([N+](=O)[O-])cc1)C1=C(CC(C)(C)CC1=O)N2[C@@H]1O[C@H](COC(C)=O)[C@@H](OC(C)=O)[C@H](OC(C)=O)[C@H]1OC(C)=O (stereo partly specified)	Not satisfied
Cc1cn2c(=O)c3c(nc2n1N)NC1=C(C(=O)CC(C)(C)C1)C3c1ccc([N+](=O)[O-])cc1 (stereo unspecified)	Satisfied
CC1(C)CC(=O)C2=C(C1)Nc1nc(N/N=C\c3ccc(Cl)cc3)[nH]c(=O)c1C2c1ccc([N+](=O)[O-])cc1 (stereo unspecified)	Satisfied
